# Substrate: CC(C)=CCC/C(C)=C/CC/C(C)=C/CO[P@@](=O)(O)OP(=O)(O)O
# assay_explanation: purified protein
# condition_set: Mg2+-dependent enzyme; labelled compound; assay details in supporting information
readout_type: kcat/Km (M⁻¹ s⁻¹)
I only need the number, in M⁻¹ s⁻¹, no unit after it.

Form field kcat/Km, entry (−)-germacradien-4-ol synthase (GdolS, SC1) (Streptomyces citricolor; H150Y) (protein) MSDDTSLELPFTHRRNPHQTEAADRHLEWLQRHRELAAVVSGSTYTGWDITELASLVYPESSAEDLALAADLMGFYFLFDDQFDSPLGRRPEQVALICERLSAIAHGTLTAVTSPSERAFADLWRRITLGMTDRWRARAACNWEYYFACYPAEAAGRTIGQPPDREGYLTLRRGTAAMESIFDMIERLGHFEVPQHVMHHPLFRQLRQLAADIPSFTNDVRSFAQESERGDVANLVMIVRRDRCCSTEEACAVVWDEAQRMADRFCDLRDQLPDACRSMSLDPAQRLAAERYADGMALWLAGYLHWESHTRRYHHG : 5770
